# Test system: Saccharomyces cerevisiae
# protocolSummary: Substrate activity against yeast hexokinase as 1:1 Mg complexes at 5.0 mM
experimentalEndpoint: Relative velocity
Would you mind answering with just the numeric figure?

The cases that follow already have their Relative velocity on record.
smilesStructure	numericValue
O=C(CI)NCCCC(=O)NCCCCCCNc1ncnc2c1ncn2[C@@H]1O[C@H](COP(=O)(O)OP(=O)(O)OP(=O)(O)O)[C@@H](O)[C@H]1O	1
O=C(CI)NCCCCCC(=O)NCCCCCCNc1ncnc2c1ncn2[C@@H]1O[C@H](COP(=O)(O)OP(=O)(O)OP(=O)(O)O)[C@@H](O)[C@H]1O	1.02
O=C(CI)NCCCCCNc1ncnc2c1ncn2[C@@H]1O[C@H](COP(=O)(O)OP(=O)(O)OP(=O)(O)O)[C@@H](O)[C@H]1O	0.75

Recorded Relative velocity for `O=C(CI)NCCCCCC(=O)NCCCNc1ncnc2c1ncn2[C@@H]1O[C@H](COP(=O)(O)OP(=O)(O)OP(=O)(O)O)[C@@H](O)[C@H]1O` with Saccharomyces cerevisiae, please? 1.06

What measured Relative velocity is associated with `CN(CCCCCCN(C)c1ncnc2c1ncn2[C@@H]1O[C@H](COP(=O)(O)OP(=O)(O)OP(=O)(O)O)[C@@H](O)[C@H]1O)C(=O)CCCCCCNC(=O)CI` on Saccharomyces cerevisiae? 0.94

---

# assayTarget: Hexokinase-3 (Rattus norvegicus)
# Sequence (whole entry): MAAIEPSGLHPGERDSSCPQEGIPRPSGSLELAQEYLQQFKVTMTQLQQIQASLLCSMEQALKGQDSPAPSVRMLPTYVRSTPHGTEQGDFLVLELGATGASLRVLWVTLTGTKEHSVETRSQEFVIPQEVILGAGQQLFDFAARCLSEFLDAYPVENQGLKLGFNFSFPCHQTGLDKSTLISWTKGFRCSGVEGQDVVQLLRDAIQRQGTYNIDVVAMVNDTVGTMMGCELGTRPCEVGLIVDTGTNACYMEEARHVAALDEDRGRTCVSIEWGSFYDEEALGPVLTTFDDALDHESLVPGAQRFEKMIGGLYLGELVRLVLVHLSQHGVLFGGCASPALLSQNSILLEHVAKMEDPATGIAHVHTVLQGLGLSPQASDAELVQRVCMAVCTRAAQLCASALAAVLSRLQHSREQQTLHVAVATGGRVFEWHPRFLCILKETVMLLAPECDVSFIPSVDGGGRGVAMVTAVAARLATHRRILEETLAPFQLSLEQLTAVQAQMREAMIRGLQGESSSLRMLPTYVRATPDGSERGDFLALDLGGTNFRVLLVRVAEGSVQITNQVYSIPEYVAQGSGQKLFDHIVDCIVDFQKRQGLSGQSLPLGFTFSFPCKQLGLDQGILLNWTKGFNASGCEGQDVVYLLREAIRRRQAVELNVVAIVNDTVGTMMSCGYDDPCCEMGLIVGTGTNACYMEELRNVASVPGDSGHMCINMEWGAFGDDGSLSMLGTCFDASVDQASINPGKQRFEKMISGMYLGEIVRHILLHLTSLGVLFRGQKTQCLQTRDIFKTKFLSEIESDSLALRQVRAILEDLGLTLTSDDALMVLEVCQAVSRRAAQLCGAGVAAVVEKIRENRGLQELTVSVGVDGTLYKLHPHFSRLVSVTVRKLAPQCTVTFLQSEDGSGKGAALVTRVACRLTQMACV
# protocolSummary: Substrate activity for rat hexokinase III as 1:1 Mg complex at 5.0 mM
experimentalEndpoint: Relative velocity
// return just the number, without any unit appended

smilesStructure	numericValue
CC(=O)NCCCCCCCCNc1ncnc2c1ncn2[C@@H]1O[C@H](COP(=O)(O)OP(=O)(O)OP(=O)(O)O)[C@@H](O)[C@H]1O	1.25
O=C(CI)NCCCCCNc1ncnc2c1ncn2[C@@H]1O[C@H](COP(=O)(O)OP(=O)(O)OP(=O)(O)O)[C@@H](O)[C@H]1O	1.31
Nc1ncnc2c1nc(NCCCCCCCCNC(=O)CI)n2[C@@H]1O[C@H](COP(=O)(O)OP(=O)(O)OP(=O)(O)O)[C@@H](O)[C@H]1O	1.81

State its Relative velocity on Hexokinase-3 (Rattus norvegicus): `CN(CCCN(C)C(=O)CCCNc1ncnc2c1ncn2[C@@H]1O[C@H](COP(=O)(O)OP(=O)(O)OP(=O)(O)O)[C@@H](O)[C@H]1O)C(=O)CCCNC(=O)CI` 1.02

---

# protocolSummary: Tested for the velocity of 2.8 mM compound relative to that of 2.8 mM MgATP in the assay
Catalogue of compounds with associated Velocity

Solved cases (2 shown):
smilesStructure	experimentalEndpoint	result
CN(CCCCN(C)c1ncnc2c1ncn2[C@@H]1O[C@H](COP(=O)(O)OP(=O)(O)OP(=O)(O)O)[C@@H](O)[C@H]1O)C(=O)CCCNC(=O)CI	Velocity	> 33%
CN(CCCCN(C)c1ncnc2c1ncn2[C@@H]1O[C@H](COP(=O)(O)OP(=O)(O)OP(=O)(O)O)[C@@H](O)[C@H]1O)C(=O)CCCCCNC(=O)CI	Velocity	> 13%

Query compound follows.
# get_value(readout='Velocity', item= `O=C(CI)NCCCCCCC(=O)NCCCNc1ncnc2c1ncn2[C@@H]1O[C@H](COP(=O)(O)OP(=O)(O)OP(=O)(O)O)[C@@H](O)[C@H]1O` ) > 25%
